# study system: CYP2D6 (Homo sapiens, UniProt P10635)
# Construct: 0.1 mg/mL protein human liver microsomes (BD Gentest); tissue BD Gentest; host or cells: human liver microsomes
# Sequence (P10635 whole entry): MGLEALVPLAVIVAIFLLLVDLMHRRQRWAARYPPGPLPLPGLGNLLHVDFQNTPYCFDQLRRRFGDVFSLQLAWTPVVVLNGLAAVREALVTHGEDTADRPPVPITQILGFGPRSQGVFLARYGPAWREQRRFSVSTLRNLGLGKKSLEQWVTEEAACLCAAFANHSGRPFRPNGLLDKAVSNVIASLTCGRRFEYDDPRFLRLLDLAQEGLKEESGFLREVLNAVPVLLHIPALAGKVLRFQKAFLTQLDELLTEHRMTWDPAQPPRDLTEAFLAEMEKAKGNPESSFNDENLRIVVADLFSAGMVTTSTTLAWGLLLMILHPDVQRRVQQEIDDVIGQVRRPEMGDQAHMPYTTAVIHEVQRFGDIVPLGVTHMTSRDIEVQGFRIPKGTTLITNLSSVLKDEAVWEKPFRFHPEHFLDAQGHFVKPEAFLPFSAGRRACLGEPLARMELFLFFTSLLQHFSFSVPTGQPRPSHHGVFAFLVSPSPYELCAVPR
# protocol summary: Cocktail assay for CYPs in human liver microsomes: CYP2D6 (dextromethorphan O-demethylation)
# Format: biochemical
# test context: human liver microsomes 0.1 mg/mL, 5 μM dextromethorphan, 10 min at 37° C., 6 concentrations up to 10 μM; read-out: IC50 (nM) CYP2D6
// classify(record): look up IC50 in ranges c1 (below 2000 nM), c2 (2000 nM to below 6000 nM), c3 (6000 nM or more)

| compound | group |
| --- | --- |
| c1ccc(CCn2cncc2CN2CCN(c3nc4ccccc4o3)CC2)nc1 | c2 |
| CC(C)C1(C#N)CCN(Cc2cncn2[C@H](C)c2ccc(F)cc2)CC1 | c3 |
| CCCC1(C#N)CCN(Cc2cncn2[C@H](C)c2ccc(F)cc2)CC1 | c2 |
| C[C@H](c1ccc(F)cc1)n1cncc1CN1CCC(C)(C#N)CC1 | c3 |
| CC(C)CC1(C#N)CCN(Cc2cncn2[C@H](C)c2ccc(F)cc2)CC1 | c2 |
| C[C@H](c1ccc(C#N)cc1)n1cncc1CN1CCN(c2nc3ccccc3[nH]2)CC1 | c1 |
| CC(c1ccccc1-c1ccc(F)cc1)n1cncc1CN1CCN(CCO)CC1 (stereo not drawn) | c3 |
| C[C@H](c1ccc(C#N)cc1)n1cncc1CN1CCN(c2nc3cccc(F)c3o2)CC1 | c1 |
| CCC1(C#N)CCN(Cc2cncn2[C@H](C)c2ccc(F)cc2)CC1 | c3 |
| C[C@H](c1ccc(C#N)cc1)n1cncc1CN1CCC2(CC1)C(=O)NCN2c1ccccc1 | c3 |
| CCc1noc(C2(C)CCN(Cc3cncn3[C@H](C)c3ccc(F)cc3)CC2)n1 | c2 |
| C[C@H](c1ccc(F)cc1)n1cncc1CN1CCN(Cc2ccccc2Cn2cncn2)C(=O)C1 | c2 |
| CCS(=O)(=O)CCc1cnc(N2CCN(Cc3cncn3[C@H](C)c3ccc(Cl)cc3)CC2)s1 | c1 |
| C[C@H](c1ccc(C#N)cc1)n1cncc1CN1CCC(c2nc3ccccc3o2)CC1 | c3 |
| C[C@H](c1ccc(F)cc1)n1cncc1CN1CCN(C(=O)c2ccccn2)C(c2ccccc2)C1 (stereo partly drawn) | c3 |
| CC(C1CCOCC1)n1cncc1CN1CCN(c2nc3ccccc3o2)CC1 (stereo not drawn) | c3 |
| CC1(C#N)CCN(Cc2cncn2Cc2nc3ccccc3s2)CC1 | c3 |
